Value source: the supplement of paper PMC9170038

Task for the reader: assign each of the following sequences its reported apparent KD of MS2 coat protein.
System: MS2 coat protein
Test: apparent KD of MS2 coat protein; designed switch direction (-1 OFF switch, 1 ON switch): -1; higher = weaker reporter binding
Details: input ligand: FMN 200 uM
One number for each entry, in nM.

* AUCCCGCGAGGAUAUACAUGAGGAUCACCCAUGUAGGUUCUGGAUGGGCGAAAUUUGUGUAGAAGGCGCACCAA [Tibeaqu] (Eterna round: R96, puzzle: Exclusion 3) | 38.4
* GUUUCACAUGAGGAUCACCCAUGUGAGGAUAUCCAUUUGUUAACCGUAGUUAAUAGAUGGAGAAGGCGCGUGAU [JRxlusion 6 - Jieux - Exclusion 1] (Eterna round: R97, puzzle: Exclusion 1) | 66.6

For the next question, use this sequence.
Asked: Please report apparent KD of MS2 coat protein for the following sequence: GCACGAAGUGGAGGAUAUCUGGGCGAGGAGCGCAGAGAAGGCCACAUGAGGAUCACCCAUGUUUUCCACGGAUAGCAAACGUGC [exng1 ex2.1] (Eterna round: R96, puzzle: Exclusion NG 1)
Given back: 25.5

###

Task for the reader: assign each of the following sequences its reported apparent KD of K4 kissing-loop reporter.
Tested on: K4 kissing-loop RNA reporter;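 note: bound reporter read as fluorescence of individual clusters on recovered sequencing chips by microscopy, with normalized cluster intensities fitted with a binding model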
Assay: apparent KD of K4 kissing-loop reporter; higher = weaker reporter binding
Details: Eterna round: R107; input ligand: tryptophan 2.4 mM
One number for each entry, in nM.

Hey, can you go through the list below and give me apparent KD of K4 kissing-loop reporter for every item?
1. GCCGUACGCAUGGAUACCAGCUACUAGAGUGAUGUUCUAUGGCCCUGCCAAUGGAGCUGUAGCCCUUGGCAGCCAUGCGUACGGC
2. CGAGUGAUGUUCGUUCGUUUAUUUCUUUGACAGGAUAUGCGGAAACGCAGAAGGGUCACCUUUGAGUUAAAGGAAUUUACGUUAU [Ex FMN A 26]
3. AAUAUAGUGAUGUUAUAUAAGAAGGAGUUACGAGGACCGGUACGGCCGCCACUCGAAACGAGUGAGGAUUUGGGAGAUUGGGUUC [SSTryptA.L]
4. ACUGAAAGAUCUGAUACCAGACUUUUUGUAUUUAUUAAAACUAGUGAUGUUAGUUUAUCAGUCCCUUGGCAGCAGUUACUACAGA [JR_Nu_ExcTheophyB_Sub024]
5. CCAUCGCUAUUCGAUACCAGCUACUUAGUGAUGUUAAGUUAAAAUCAAUUGUAGAUUGAAAGCCCUUGGCAGCGAAUAGUGAUGG [Theophylline B K4 21]
6. GGGAGUAGUGCGGCCGCCACUGUGAAAGUAGAAGAAUAUAGUGAUGUUAUAUAGGAUUAAAAGAAUAGGACCGGGCAUUAGAUUU [SSTRyptB.W]
7. GGAACUACGACGGCCGCCACUCUGUAUCCCAACGUUAAGGUCCUAACUGCAAGUGAUGUUUGUGCGAGGACCGGGUCUCCCUUGC [theeternabot_exclusion_KL_Trp_B_30]

Given back:
1. 126
2. 483
3. 283
4. 95.4
5. 135
6. 209
7. 217

Hey, can you go through the list below and give me apparent KD of K4 kissing-loop reporter for every item?
1. AAACUUGCAGUGAUGUUGCAAGUAGGUGAUACCAGCAUCGAAAGAUGCCCUUGGCAGCACCAAAACAUCACUUAGGUAUCACCAA [(H1)-(H2)-(T1)-(T2)-(H)'-(T)'_Design3]
2. AGACUACCACACUGUCAAUAGACAGUGUACUAGGAUAUGCUGAUAAGCAGAAGGAGUGAUGUUCCGAGGUAGUCAAUAAAAUAAU [FmnAX 13 U28+G66]
3. UCCUGCAAUCGACCACGAAAGUGGAUCGAUACCAGAGUCGAAAGACUCCCUUGGCAGCGAGUGAUGUUCGAAGCAGGUAAAUAAA [#SwitchBubble 22 #K4Late]
4. AUUUUUUUGUCAGGAUAUUAGUAUGCAUUUAGUUUGUUAGUGAUGUUGAUAUUUUGUUUAUGUAUUUAAGAAGGGAUUUAGCGGU [iiikmullin]
5. AAACAUCACUGGGAGUGAUGUUCUCAGUGACGAGGACCGGUACGGCCGCCACUCGCGAGAGAUAUAGUUAAGUAAUGACUGCAUU [Excl Tryptophan A V7]

Given back:
175
242
383
306
324

###

System: MS2 coat protein
Assay: apparent KD of MS2 coat protein; designed switch direction (-1 OFF switch, 1 ON switch): -1; higher = weaker reporter binding
Conditions: Eterna round: R95; input ligand: FMN 200 uM
Rule: apparent KD of MS2 coat protein under 50 nM gives false (0), otherwise true (1).

Below, 4 sequences whose answers are already recorded.
• UGUACUAUGCGAGCUGACUUGCGUAGUGCAGCAGGUGUAACAUGAGGAUCACCCAUGUCCUCAUUUGCUCGUCUUAA [Mat - Sensor v3 - Turn-off var 2 - D10] (puzzle: Sensor v3, turn-off variant 2) = true (1)
• GAUUAUGCGAGCUUUAGGGACAUGAGGAUCACCCAUGUUCGUCUUAUUGGUCUGGAUGCGCUAACAUACCUAAAUCU [JMF 46] (puzzle: Sensor v3, turn-off variant 1) = false (0)
• AGAAAUGCCCAUGGCCACAAGCUUUUUGCUUAUCUUACCACAUGAGGAUCACCCAUGUGACAUGGGCUCCUGAUAAU [Teedor] (puzzle: Sensor v3, turn-off variant 2) = false (0)
• GGUUGACAUGAGGAUCACCCAUGUGAGGAUAUGCGAGAGAAAAAAGUGAGGAAGUAAAGCAGAAGGCGCUGUCG [salish99-ex1_r3_004] (puzzle: Exclusion 1) = true (1)

Asked: Determine whether measured apparent KD of MS2 coat protein meets or exceeds 50 nM for UUUUAACAUGAGGAUCACCCAUGUGAGGAUAUCGAAAUUUAUAUUUAUAUUAAUAAAACGAGAAGGCACAUUUU [JMF 75] (puzzle: Exclusion 1)
Given back: true (1)

###

Tested on: MS2 coat protein
Assay: apparent KD of MS2 coat protein; higher = weaker reporter binding
Details: Eterna round: R107; input ligand: tryptophan 2.4 mM
ENDPOINT_NAME: apparent KD of MS2 coat protein (nM)
One number for each entry, in nM.

# annotated cases, reported apparent KD of MS2 coat protein shown
- ACAUGAGGAUCACCCAUGUGAAGGCACGAUACCAGCUGAUCCCGUGGCCCUUGGCAGCGUCCGGUGUGGUCCGGCGGGUGGGACG [bbvmullin]: 24.4
- GUACAUGAGGAUCACCCAUGUAUAGUUGAAGGAGCGACCGGAGGGUCAGGUAGGUCGCAGCACAUGGCGUCAACCCGUGUAUGCC [#1 Exclusion - Arginine A Attempt #25 (Inspired by Pi)]: 18.6
- GCAUCCUAGUCGGCCGCCACUGCAUGUUGGCAGUGCUGCAACAUACAUGAGGAUCACCCAUGUUGCAGGACCGGGACUAGGAUGC [(Trp1)-(MT2)''-(T1)'-(MT2)'-(Ms2)-(Trp2)_Design1]: 22.8
- UUAUUUAUAUUAGAUACCAGUUUAAUGGCCGCAAAUCCUGACAUGAGGAUCACCCAUGUAAGCCCUUGGCAGCUGGUAUGGGUUU [XTheo B #26]: 20.5

Hey, can you go through the list below and give me apparent KD of MS2 coat protein for every item?
1. AUAAAUAUAACCGAUACCAGCCUUAUACAUGAGGAUCACCCAUGUUAUGCUUCCUUUCUUGGCCCUUGGCAGCGGAAAUGGGUAA [SSTheo B #13]
2. AUAUUAAUCGGAAGGAGCGGUACAUGAGGAUCACCCAUGUGGUAAGCUAGCAGAUCCCGUUACCAGGUAGGUCGCCGAGUUAUGA [XArg-B17]

Given back:
44.8
216

###

Tested on: MS2 coat protein
Test: apparent KD of MS2 coat protein; designed switch direction (-1 OFF switch, 1 ON switch): 1; higher = weaker reporter binding
Details: input ligand: none
ENDPOINT_NAME: apparent KD of MS2 coat protein

# annotated cases, reported apparent KD of MS2 coat protein shown
* AGCACGGGAUUGGAGGAUAUGUUGUUUGCAACAUGAGGAUCACCCAUGUCUGAGGCUGAAAAGCAGCAGAAGGCCGAUACAACCA [SS2-1.2] (Eterna round: R96, puzzle: Same State 2) | 198 nM
* UGUUGGAAGUGAGGAUAUGGGAAAGGAAGUGUACCAGAAGGCACAUCUAGCCGGAACAUGAGGAUCACCCAUGUACCACACUAC [PowerStrip SSNG 1.15] (Eterna round: R96, puzzle: Same State NG 1) | 30.7 nM
* GGUAGGUUACUACCAACACAUGAGGAUCACCCAUGUUUUCAUGAGGAUAUGGUACCUAUUUGGUACCAGAAGGCAUGGUUAAUU [Fiskers NG3ss - 18] (Eterna round: R96, puzzle: Same State NG 3) | 104 nM

For the next question, use this sequence.
Asked: Please report apparent KD of MS2 coat protein for the following sequence: GCUACCAAUGAAGCCUACAUGAGGAUCACCCAUGUAUGUAGGCAGGAUAUCGAUUGCAAAGCGAUCGAGAAGGGCUUAGGUAGC [Mat - Same State NG 3 - JL Mod - D91] (Eterna round: R96, puzzle: Same State NG 3)
Given back: 95.8 nM
